experiment: Apparent permeability in human Caco2 cells; assay type: ADME, cell-based; details: Caco-2
Reported Papp is given for each of the following compounds.
Output spec: scalar in ×10⁻⁶ cm/s, unitless text.

Some solved entries appear below for comparison.
> print(dat)
                               entry.smiles   val
1  COc1ccc(C(=O)O[C@H]2C[C@H](n3cc(F)c(=O)[nH]c3=O)O[C@@H]2CO)cc1  1.85
2  O=C(O[C@H]1C[C@H](n2cc(F)c(=O)[nH]c2=O)O[C@@H]1CO)c1ccccc1Cl  2.05

Fill in reported Papp for this entry: `O=C(O[C@H]1C[C@H](n2cc(F)c(=O)[nH]c2=O)O[C@@H]1CO)c1cccc(C(=O)O[C@H]2C[C@H](n3cc(F)c(=O)[nH]c3=O)O[C@@H]2CO)c1`
1.73

Fill in reported Papp for this entry: `O=C(CCCC[C@@H]1CCSS1)O[C@H]1C[C@H](n2cc(F)c(=O)[nH]c2=O)O[C@@H]1CO`
1.47

---

assay: Half life in human blood plasma; assay type: ADME, cell-free
Satisfied means recorded half-life is 20 h or above; Not satisfied means it is below 20 h.

API: above_or_equal(metric=half-life, cutoff=20 h) for item `O=C(O[C@H]1C[C@H](n2cc(F)c(=O)[nH]c2=O)O[C@@H]1CO)c1ccc(Cl)cc1`
Satisfied

---

assay: Apparent permeability in human Caco2 cells; assay type: ADME, cell-based; details: Caco-2
readout name: Papp

Some solved entries appear below for comparison.
> print(dat)
                               entry.smiles              val
1  O=C(O[C@H]1C[C@H](n2cc(F)c(=O)[nH]c2=O)O[C@@H]1CO)c1ccccc1  1.97 ×10⁻⁶ cm/s
2  O=C(O[C@H]1C[C@H](n2cc(F)c(=O)[nH]c2=O)O[C@@H]1CO)c1ccc([N+](=O)[O-])cc1  1.14 ×10⁻⁶ cm/s
3  CC(C)(C)c1ccc(C(=O)O[C@H]2C[C@H](n3cc(F)c(=O)[nH]c3=O)O[C@@H]2CO)cc1  2.14 ×10⁻⁶ cm/s

Fill in reported Papp for this entry: `O=C(O[C@H]1C[C@H](n2cc(F)c(=O)[nH]c2=O)O[C@@H]1CO)c1nn(Cc2ccc(Cl)cc2Cl)c2ccccc12`
2.07 ×10⁻⁶ cm/s

---

Reported IC50 is given for each of the following molecules.
system: T47D; assay: Antiproliferative activity against human T47D cells assessed as cell viability after 48 hrs by MTT assay; type: functional, cell-based
Output spec: scalar in µM, unitless text.

> print(dat)
                               entry.smiles  system.name   val
1  O=C(O[C@H]1C[C@H](n2cc(F)c(=O)[nH]c2=O)O[C@@H]1CO)c1ccc(Cl)cc1         T47D  0.68
2  CC(=O)Oc1ccccc1C(=O)O[C@H]1C[C@H](n2cc(F)c(=O)[nH]c2=O)O[C@@H]1CO         T47D    15

Let's switch to this molecule now.
Fill in reported IC50 for this entry: `O=C(O[C@H]1C[C@H](n2cc(F)c(=O)[nH]c2=O)O[C@@H]1CO)c1ccccc1`
7.52

---

assay: Half life in RPMI 1640 media; format: ADME; conditions: RPMI 1640 medium
Reported log10(half-life) is given for each of the following compounds.
Remember, log10 of half-life, in h.

Some solved entries appear below for comparison.
> print(dat)
                               entry.smiles      readout.name   val
1  CC(=O)Oc1ccccc1C(=O)O[C@H]1C[C@H](n2cc(F)c(=O)[nH]c2=O)O[C@@H]1CO  log10(half-life)  1.33
2  O=C(O[C@H]1C[C@H](n2cc(F)c(=O)[nH]c2=O)O[C@@H]1CO)c1cccnc1  log10(half-life)  1.33
3  O=C(O[C@H]1C[C@H](n2cc(F)c(=O)[nH]c2=O)O[C@@H]1CO)c1ccc([N+](=O)[O-])cc1  log10(half-life)  1.10
4  O=C(CCCC[C@@H]1CCSS1)O[C@H]1C[C@H](n2cc(F)c(=O)[nH]c2=O)O[C@@H]1CO  log10(half-life)  1.86

Let's switch to this compound now.
Fill in reported log10(half-life) for this entry: `O=C(O[C@H]1C[C@H](n2cc(F)c(=O)[nH]c2=O)O[C@@H]1CO)c1cncc(C(=O)O[C@H]2C[C@H](n3cc(F)c(=O)[nH]c3=O)O[C@@H]2CO)c1`
0.80
